molecular target: SCRIB_2, Q14160; assay: holdup assay; design: key: below the threshold = too weak to quantify, mostly under pKd 3.1 to 4; conditions: plain residues with an end cap or a label only (N-terminal biotin on a linker: ado-ado)
Sequence (Q14160 857-960): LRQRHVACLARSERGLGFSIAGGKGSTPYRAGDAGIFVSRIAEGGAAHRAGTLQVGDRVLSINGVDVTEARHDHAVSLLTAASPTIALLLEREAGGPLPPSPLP

BINDER	pKd
EALLQMESVA [CAVIN3, Q969G5]	below the threshold
LSEFKAMDSI [CTNNA1, P35221]	below the threshold
PEYLGLDVPV [ERBB2, P04626]	below the threshold
KSGKQTMLVV [TRIM29, Q14134;Q14134-2]	below the threshold
MLSKQSESAI [FLVCR1, Q9Y5Y0]	3.55
YYKRPVQEWV [MMP24, Q9Y5R2]	below the threshold
TPPAAKKSRI [BAZ1A, Q9NRL2]	below the threshold
RHGSCVETSL [TMEM151B, Q8IW70]	4.43

// data source = paper PMC9482650
